# Test system: ROCK2
# Run Conditions: concentration: 1 μM, replicates: in singlicate; n = 1;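 note: KINOMEscan kinase panel screen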
Listed here are compounds together with their documented %Inh.
Report as: number unit

Compound	%Inh
Cc1cccc(Nc2nc(N[C@H]3CCCC[C@H]3N)ncc2C(N)=O)c1.Cl	82%
c1ccc(Oc2ccc(Nc3ccnc4cc(-c5ccc(CN6CCCCC6)o5)ccc34)cc2)nc1	0%

## Input I'd like to know its %Inh. The compound in question is Cn1cc(-c2ccc3c(c2)CCN3C(=O)Cc2cc(F)cc(F)c2F)c2c(N)ncnc21
## Output 30%

## Input Consider the compound shown here: Cl.Cl.NCC(NC(=O)c1cc(-c2cccnc2)c(-c2ccnc3[nH]ccc23)s1)c1ccccc1 (centres unmarked) What is its recorded %Inh?
## Output 99.4%

## Input Entry Cl.Cl.NC(CNC(=O)c1cc(Br)c(-c2ccnc3[nH]ccc23)s1)c1ccccc1 (centres unmarked) has what %Inh?
## Output 99.9%

## Input I'd like to know its %Inh. The compound in question is COc1cc(Nc2ccnc3cc(-c4ccncc4)ccc23)cc(OC)c1OC.Cl
## Output 14%

## Input Quick check: %Inh of Cc1cc(-c2c(-c3ccc(F)cc3)ncn2CCCN2CCOCC2)nc(N)n1 ?
## Output 0%

## Input Bench note: what %Inh did COC(=O)Nc1nc2ccc(Oc3ccc(NC(=O)Nc4cc(C(F)(F)F)ccc4F)cc3)cc2[nH]1.Cl show?
## Output 16%

----------
Parameter %Inh: see the listing below.
# Tested on: SgK110
# Run Conditions: concentration: 1 μM, replicates: in singlicate; n = 1
Numeric only. Scale: %

Examples with their reported %Inh follow.
Compound	Units Text	%Inh
CSc1ccc(NC2=C(c3ccc(Cl)cc3)C(=O)NC2=O)cc1 [SB-317658]	%	0
Cc1ccc(NC(=O)c2cccc(N3CCCCC3)c2)cc1-c1ccc(C(=O)NCC2CC2)cc1 [GSK1917008]	%	0
CN1CCN(Cc2ccc(NC(=O)Nc3ccc(N(C)c4ccnc(Nc5ccc(CS(C)(=O)=O)cc5)n4)cc3)cc2)CC1.Cl [GW827654]	%	0
Cl.O=C(Nc1ccc(Oc2ccc3[nH]c(NC(=O)c4ccco4)nc3c2)cc1)Nc1cc(C(F)(F)F)ccc1F [GW683134]	%	0
Fc1cc(Cl)ccc1Nc1ccnc2cc(-c3ccc(CN4CCSCC4)o3)ccc12 [GW560106]	%	0
CCNC(=O)/C=C/c1n[nH]c2cc(Sc3ccccc3C(=O)NC)ccc12	%	15
O=C(O)C(F)(F)F.O=c1[nH]ccc2nc(N[C@@H]3CCNC3)nc(Nc3cc(Cl)cc(Cl)c3)c12 [GSK2188764]	%	3
CC(C)c1nc(-c2ccc(F)c(NS(=O)(=O)c3c(F)cccc3F)c2)c(-c2ccnc(Nc3ccc(N4CCOCC4)nc3)n2)s1 [GSK1804250]	%	0

## Input %Inh lookup needed for COc1cccc(-c2nc(-c3ccccc3)[nH]c2-c2ccncc2)c1 [SB-610250] , thanks.
## Output 20

## Input Consider the compound shown here: Cc1ccc(-c2ccc3occ(-c4ccc(S(C)=O)cc4)c3c2)nn1 (centres unmarked) What is its recorded %Inh?
## Output 0

## Input Record request: %Inh value, item COc1cccc(NC(=O)NCCNc2ccnc(Nc3ccc(F)cc3)n2)c1 [GSK1379879]
## Output 0

----------
// reported %Inh per item
# Tested on: PCTK1
# Construct: gene CDK16
# Run Conditions: concentration: 1 μM, replicates: in singlicate; n = 1
Please state the figure in %; there is no need to write the unit.

Here is how some compounds turned out for %Inh.
Compound	Experimental System	%Inh, %
N#CC1(c2cccc(C(=O)Nc3cccc(Oc4ccc5nc(NC(=O)C6CC6)sc5n4)c3)c2)CC1	PCTK1	0
Cc1ccc(NC(=O)c2cccc(N3CCCCC3)c2)cc1-c1ccc(C(=O)NCC2CC2)cc1	PCTK1	12
CCOc1nccc(-c2c(-c3ccc(F)cc3)ncn2C2CCNCC2)n1	PCTK1	26
Cc1ccccc1CC(=O)N1CCc2cc(-c3cn(C)c4ncnc(N)c34)ccc21	PCTK1	0
O=C(O)C(F)(F)F.O=c1[nH]ccc2nc(N[C@@H]3CCNC3)nc(Nc3cc(Cl)cc(Cl)c3)c12	PCTK1	7
Cc1ccc(NC(=O)c2ccc(Cl)c(Cl)c2)cc1-c1ccc(C(=O)Nc2ccncc2)cc1	PCTK1	0
COc1ccc(NC(=O)c2ccoc2)cc1-c1ccc(C(=O)NCC2CC2)cc1	PCTK1	4
CC(C)(C)c1ccc(C(=O)Nc2cn3cc(-n4ccnc4)ccc3n2)cc1	PCTK1	6
CN(C)CCNS(=O)(=O)c1ccc(-c2ccnc3[nH]ccc23)cc1	PCTK1	7
CSc1ccc(NC2=C(c3ccc(Cl)cc3)C(=O)NC2=O)cc1	PCTK1	0

## Input Data request, read-out %Inh, for Cc1ccc(-c2ccc3occ(-c4ccc(S(C)=O)cc4)c3c2)nn1 (centres unmarked)
## Output 0

## Input I have this compound here, O=C(Nc1n[nH]c2nc(-c3cccc(O)c3)ccc12)C1CC1 , and I need its recorded %Inh.
## Output 52

## Input Need %Inh, item CC(C)NCC(Cc1ccccc1)NC(=O)c1cc(Br)c(-c2ccnc3[nH]ccc23)s1.Cl.Cl (centres unmarked)
## Output 1

## Input Return reported %Inh; argument: CCn1cnc2c(NCc3ccccc3)ncnc21
## Output 0

## Input State the recorded %Inh for this entry: COC(=O)Nc1nc2ccc(Oc3ccc(CC(=O)Nc4cc(C(F)(F)F)ccc4F)cc3)cc2[nH]1
## Output 0

----------
# System: MINK
# Construct: gene MINK1
# Run Conditions: concentration: 1 μM, replicates: in singlicate; n = 1
If the reported %Inh equals or exceeds 50%, assign T. If not, assign F.

Compound	Class Assignment
COc1cccc(C2=C(Nc3cccc(O)c3)C(=O)NC2=O)c1 [SB-390771]	F
CN(c1ccc(F)c(NC(=O)c2cccc(OC(C)(C)C#N)c2Cl)c1)c1ccc2nc(NC(=O)C3CC3)sc2n1	T
NCCC(NC(=O)c1cc(Br)c(-c2ccnc3[nH]ccc23)s1)c1ccccc1.O=C(O)C(F)(F)F.O=C(O)C(F)(F)F (centres unmarked) [GSK1307810]	T
CNc1nccc(-c2ccc3c(N)n[nH]c3c2)n1 [GSK2206003]	T
Cc1ccc(O)cc1Nc1ccnc2cc(-c3ccc(CN4CCCCC4)o3)ccc12 [GW557777]	F

## Input Item Cc1ccc(O)cc1Nc1ccnc2ccc(C(C)(C)C)cc12 [GW856805] with %Inh of 50% or above?
## Output F

## Input Assess whether reported %Inh for CCn1c(-c2nonc2N)nc2c(-c3ccccc3)ncc(OCCCN)c21.O=C(O)C(F)(F)F.O=C(O)C(F)(F)F [GSK260205] sits at 50% or higher.
## Output T

## Input Determine whether this compound has %Inh no lower than 50%: Cl.Cl.NC(CNC(=O)c1cc(Br)c(-c2ccnc3[nH]ccc23)s1)c1ccccc1 (centres unmarked) [GSK1322949]
## Output T

## Input Reported %Inh reaches at least 50% for N#CC1(c2cccc(C(=O)Nc3cccc(Oc4ccc5nc(NC(=O)C6CC6)sc5n4)c3)c2)CC1 ?
## Output T

## Input Can Cc1ccc(NC(=O)c2cccc(N3CCCCC3)c2)cc1-c1ccc(C(=O)NCC2CC2)cc1 [GSK1917008] be said to have %Inh at or above 50%?
## Output F

## Input Decide: is the reported value of %Inh for O=C(O)C(F)(F)F.O=c1[nH]ccc2nc(N[C@@H]3CCNC3)nc(Nc3ccc4c(c3)S(=O)(=O)CC4)c12 [GSK2181306] equal to or greater than 50%?
## Output T

## Input Test whether the compound COc1cc(Nc2nccc(N3CCC(NS(=O)(=O)c4ccc(NC(C)=O)cc4)CC3)n2)cc(OC)c1OC [GSK1379825] records %Inh of 50% or higher.
## Output F

## Input Check this compound for %Inh at or above 50%: Cc1ccc(C)c(NC(=O)Nc2ccc(C)c(-c3ccc(C(=O)Nc4ccncc4)cc3)c2)c1 [GSK1398473]
## Output F

----------
# System: SGK3
# Run Conditions: concentration: 1 μM, replicates: in singlicate; n = 1
Each record here notes measured %Inh.
Unit % implied. Number only.

## Input Notebook entry, SGK3 assay: %Inh of Cc1ccc(NC(=O)c2cccc(N3CCCCC3)c2)cc1-c1ccc(C(=O)NCC2CC2)cc1 = ?
## Output 7

## Input API: value(readout= %Inh, system= SGK3, query= Cc1ccc(O)cc1Nc1ccnc2cc(-c3ccc(CN4CCCCC4)o3)ccc12 )
## Output 0

## Input # query: %Inh | item COc1cccc2c(-c3ccncc3)c(-c3ccc(F)cc3)nn12 | system: SGK3
## Output 9

## Input Identify the measured %Inh of COc1cc(Nc2ccnc3cc(-c4ccncc4)ccc23)cc(OC)c1OC.Cl for SGK3.
## Output 2
